The compounds listed here are annotated with their inhibition at 1 µM.
Target: JAK1 (Homo sapiens)
Construct: purchased Invitrogen
Sequence (P23458 whole entry): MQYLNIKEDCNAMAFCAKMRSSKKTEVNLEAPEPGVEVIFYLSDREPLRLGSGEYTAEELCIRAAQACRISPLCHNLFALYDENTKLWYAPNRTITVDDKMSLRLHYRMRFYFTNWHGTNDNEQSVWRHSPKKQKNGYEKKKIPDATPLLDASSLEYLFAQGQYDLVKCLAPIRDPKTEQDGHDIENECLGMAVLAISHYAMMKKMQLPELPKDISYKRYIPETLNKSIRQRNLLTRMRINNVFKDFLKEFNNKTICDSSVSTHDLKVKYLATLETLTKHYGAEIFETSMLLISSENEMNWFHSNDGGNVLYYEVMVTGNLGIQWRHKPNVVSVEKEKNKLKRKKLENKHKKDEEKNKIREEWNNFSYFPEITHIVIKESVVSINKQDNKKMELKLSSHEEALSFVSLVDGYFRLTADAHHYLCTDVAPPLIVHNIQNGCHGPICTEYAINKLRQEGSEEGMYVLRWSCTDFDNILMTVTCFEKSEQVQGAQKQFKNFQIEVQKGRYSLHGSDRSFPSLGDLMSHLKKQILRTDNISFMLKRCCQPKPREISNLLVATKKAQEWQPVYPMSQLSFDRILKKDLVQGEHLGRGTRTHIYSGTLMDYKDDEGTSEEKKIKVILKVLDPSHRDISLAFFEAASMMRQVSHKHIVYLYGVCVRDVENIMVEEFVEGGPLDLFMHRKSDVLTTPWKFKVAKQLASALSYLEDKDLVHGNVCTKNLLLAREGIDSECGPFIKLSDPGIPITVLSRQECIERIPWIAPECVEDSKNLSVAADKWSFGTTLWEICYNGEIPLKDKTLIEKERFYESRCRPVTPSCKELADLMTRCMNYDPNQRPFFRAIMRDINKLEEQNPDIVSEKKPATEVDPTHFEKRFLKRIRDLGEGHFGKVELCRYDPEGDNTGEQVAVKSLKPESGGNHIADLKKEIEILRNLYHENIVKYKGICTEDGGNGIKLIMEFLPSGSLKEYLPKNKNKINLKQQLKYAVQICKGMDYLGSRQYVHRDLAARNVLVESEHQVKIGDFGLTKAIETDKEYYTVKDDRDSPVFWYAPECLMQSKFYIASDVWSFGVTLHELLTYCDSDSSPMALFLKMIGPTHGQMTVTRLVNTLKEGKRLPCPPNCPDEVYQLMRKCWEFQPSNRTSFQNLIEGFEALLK
Assay: JAK1 enzyme inhibition test (LANCE method)
Type: biochemical
Details: test compound 1 μM; read-out: Inhibitory rate (%) JAK1 1 μM
Procedure: JAK1 Enzyme Inhibition Test JAK1 enzyme inhibitory activity of test compounds was measured by LANCE method (PerkinElmer). First, a test compound diluted with assay buffer (50 mM HEPES (pH=7.5), 10 mM MgCl2, 1 mM EGTA, 2 mM DTT, 0.01% Tween20, 0.01% BSA) was added to 384-well plate at 2 μL each. Then, a JAK1 (Invitrogen) solution and a fluorescence-labeled peptide substrate (ULight-JAK1, PerkinElmer) solution diluted with assay buffer at 187.5 ng/mL and 300 nM, respectively were added at 2 μL each. […]
Enter your answer as a number in %; do not include the unit.

Consider the following illustrative entries.
molecule	assay_readout	val
N#Cc1c[nH]c(=O)c2c(-c3cccnc3)cn(C3CCCC3)c12	inhibition at 1 µM	47
O=c1[nH]ccc2c1c(-c1ccc([N+](=O)[O-])cc1)nn2C1CCCC1	inhibition at 1 µM	88
O=c1[nH]cc(Cl)c2c1c(-c1ccc(N3CCSCC3)cc1)nn2-c1c(F)cccc1F	inhibition at 1 µM	65
NC(=O)c1cc(-c2nn(C3CCC(=O)CC3)c3cc[nH]c(=O)c23)cs1	inhibition at 1 µM	99
O=C1CCCN1c1ccc(-c2nn(-c3c(F)cccc3F)c3cc[nH]c(=O)c23)cc1	inhibition at 1 µM	97

Observed inhibition at 1 µM on JAK1 (Homo sapiens) for "NS(=O)(=O)c1ccc(-c2cn(C3CCOCC3)c3cc[nH]c(=O)c23)cc1" , please.
93

Observed inhibition at 1 µM on JAK1 (Homo sapiens) for "Cc1ccc(-c2nn(C3CCCC3)c3cc[nH]c(=O)c23)cc1" , please.
92
